# measured-on: T1, orthogonal hCD122 receptor (hoRb), hCD122 with H133D and Y134F (human, UniProt P14784 27-550)
# T1 sequence: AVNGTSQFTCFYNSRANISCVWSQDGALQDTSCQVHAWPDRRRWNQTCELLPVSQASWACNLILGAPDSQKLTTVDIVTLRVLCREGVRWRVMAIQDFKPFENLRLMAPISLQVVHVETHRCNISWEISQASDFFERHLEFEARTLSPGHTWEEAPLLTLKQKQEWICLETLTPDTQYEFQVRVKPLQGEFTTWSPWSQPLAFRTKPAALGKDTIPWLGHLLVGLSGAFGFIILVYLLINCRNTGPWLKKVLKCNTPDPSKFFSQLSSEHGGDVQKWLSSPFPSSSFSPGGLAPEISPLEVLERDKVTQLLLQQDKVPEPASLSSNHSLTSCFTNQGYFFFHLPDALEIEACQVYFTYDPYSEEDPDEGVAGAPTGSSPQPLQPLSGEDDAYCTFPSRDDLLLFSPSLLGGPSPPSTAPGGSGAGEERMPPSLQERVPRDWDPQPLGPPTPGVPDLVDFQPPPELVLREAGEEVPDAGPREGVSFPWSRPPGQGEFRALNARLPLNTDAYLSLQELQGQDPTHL
# assay-method-text: cell-based or functional assay
measured-property: NKL Ortho Proliferation Signal 1:2

Solved entries:
binder: ΔA1, SQVLKA (ligand) PTSSSTKKTQLQLSQLLVLLKAILNGINNYKNPKLTRMLTFKFYMPKKATELKHLQCLEEELKPLEEVLNLAQSKNFHLRPRDLISNINVIVLELKGSETTFMCEYADETATIVEFLNRWITFCQSIISTLT
measured-property: NKL Ortho Proliferation Signal 1:2
readout-value: 33400
//
binder: Q126E, SQVLKA (ligand) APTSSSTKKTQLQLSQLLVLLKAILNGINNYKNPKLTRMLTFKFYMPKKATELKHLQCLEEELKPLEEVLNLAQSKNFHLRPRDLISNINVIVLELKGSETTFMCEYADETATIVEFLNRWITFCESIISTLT
measured-property: NKL Ortho Proliferation Signal 1:2
readout-value: 10600
//
binder: SQVLKW (ligand) APTSSSTKKTQLQLSQLLVLLKWILNGINNYKNPKLTRMLTFKFYMPKKATELKHLQCLEEELKPLEEVLNLAQSKNFHLRPRDLISNINVIVLELKGSETTFMCEYADETATIVEFLNRWITFCQSIISTLT
measured-property: NKL Ortho Proliferation Signal 1:2
readout-value: 52000
//
binder: SQVLSA (ligand) APTSSSTKKTQLQLSQLLVLLSAILNGINNYKNPKLTRMLTFKFYMPKKATELKHLQCLEEELKPLEEVLNLAQSKNFHLRPRDLISNINVIVLELKGSETTFMCEYADETATIVEFLNRWITFCQSIISTLT
measured-property: NKL Ortho Proliferation Signal 1:2
readout-value: 16000
//
binder: Q126C, SQVLKA (ligand) APTSSSTKKTQLQLSQLLVLLKAILNGINNYKNPKLTRMLTFKFYMPKKATELKHLQCLEEELKPLEEVLNLAQSKNFHLRPRDLISNINVIVLELKGSETTFMCEYADETATIVEFLNRWITFCCSIISTLT
measured-property: NKL Ortho Proliferation Signal 1:2
readout-value: 6560

[A] SQVLAA (ligand) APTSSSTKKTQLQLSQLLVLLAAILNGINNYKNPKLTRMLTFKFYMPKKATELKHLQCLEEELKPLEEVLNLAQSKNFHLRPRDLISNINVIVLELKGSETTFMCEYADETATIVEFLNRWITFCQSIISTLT
[B] G27K, SQVLKA (ligand) APTSSSTKKTQLQLSQLLVLLKAILNKINNYKNPKLTRMLTFKFYMPKKATELKHLQCLEEELKPLEEVLNLAQSKNFHLRPRDLISNINVIVLELKGSETTFMCEYADETATIVEFLNRWITFCQSIISTLT
Query: # compare NKL Ortho Proliferation Signal 1:2 for A vs B ; return the one with the smaller value // caller expects the label of the chosen entry
Result: A
(A: 14600, B: 36300)

[A] ΔR81, SQVLKA (ligand) APTSSSTKKTQLQLSQLLVLLKAILNGINNYKNPKLTRMLTFKFYMPKKATELKHLQCLEEELKPLEEVLNLAQSKNFHLPRDLISNINVIVLELKGSETTFMCEYADETATIVEFLNRWITFCQSIISTLT
[B] N88Q, SQVLKA (ligand) APTSSSTKKTQLQLSQLLVLLKAILNGINNYKNPKLTRMLTFKFYMPKKATELKHLQCLEEELKPLEEVLNLAQSKNFHLRPRDLISQINVIVLELKGSETTFMCEYADETATIVEFLNRWITFCQSIISTLT
Query: # compare NKL Ortho Proliferation Signal 1:2 for A vs B ; return the one with the smaller value // caller expects the label of the chosen entry
Result: B
(B: 4980, A: 62400)
